biological target: LTK (human) (UniProt P29376); assay: radiometric filter-binding kinase assay, Kinase HotSpot; details: compound 0.5 µM; ATP 10 µM
Sequence (P29376 whole entry, looked up): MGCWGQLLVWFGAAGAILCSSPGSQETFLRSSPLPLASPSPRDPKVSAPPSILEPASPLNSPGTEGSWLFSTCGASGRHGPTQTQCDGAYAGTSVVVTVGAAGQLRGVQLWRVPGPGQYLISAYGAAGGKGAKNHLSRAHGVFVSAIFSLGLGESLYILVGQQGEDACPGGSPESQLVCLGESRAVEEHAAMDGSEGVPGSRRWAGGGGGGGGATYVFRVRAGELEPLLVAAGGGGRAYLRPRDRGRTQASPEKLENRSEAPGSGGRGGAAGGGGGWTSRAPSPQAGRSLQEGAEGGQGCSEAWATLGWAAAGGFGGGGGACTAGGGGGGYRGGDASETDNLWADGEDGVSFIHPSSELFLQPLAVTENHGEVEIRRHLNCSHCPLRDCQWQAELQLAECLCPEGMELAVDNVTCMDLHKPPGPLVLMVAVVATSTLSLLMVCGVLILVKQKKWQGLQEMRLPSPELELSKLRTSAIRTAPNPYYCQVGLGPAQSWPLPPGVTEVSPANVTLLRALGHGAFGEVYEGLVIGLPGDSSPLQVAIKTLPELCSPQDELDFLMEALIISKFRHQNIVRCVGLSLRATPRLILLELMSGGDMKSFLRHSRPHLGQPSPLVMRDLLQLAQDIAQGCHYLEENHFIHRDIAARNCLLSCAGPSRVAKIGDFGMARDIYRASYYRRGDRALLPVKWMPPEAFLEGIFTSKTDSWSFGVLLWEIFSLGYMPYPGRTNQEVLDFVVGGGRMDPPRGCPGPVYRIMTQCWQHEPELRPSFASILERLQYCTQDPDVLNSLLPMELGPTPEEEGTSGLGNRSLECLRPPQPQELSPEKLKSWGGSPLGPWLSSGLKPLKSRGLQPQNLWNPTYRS
Answer each item with its documented residual activity.

Known residual activity results, listed for orientation:
Checklist item: residual activity tested on LTK (human) (UniProt P29376), entry `c1ccc(-c2n[nH]cc2-c2ccnc3ccccc23)nc1` , value?
92.8%

Same question for `O=[N+]([O-])/C=C/c1ccc2c(c1)OCO2` please.
96.4%

Could you do the same for `O=C1Nc2ccc(Cl)cc2/C1=C/c1cc(Cl)c(O)c(Cl)c1` , please?
36.9%

Working through the 3 compounds below one at a time, give residual activity for each.
1. Cc1ccc(NC2=CC(=O)c3sc(C)nc3C2=O)cc1
2. O=C1NC(=O)/C(=C/c2ccc3c(c2)OC(F)(F)O3)S1
3. O=c1cc(N2CCOCC2)oc2c1ccc1ccccc12

["88.8%", "95.5%", "101%"]
